TARGET_DESC: dopamine D2 receptors (Homo sapiens)
Sequence (P14416 whole entry): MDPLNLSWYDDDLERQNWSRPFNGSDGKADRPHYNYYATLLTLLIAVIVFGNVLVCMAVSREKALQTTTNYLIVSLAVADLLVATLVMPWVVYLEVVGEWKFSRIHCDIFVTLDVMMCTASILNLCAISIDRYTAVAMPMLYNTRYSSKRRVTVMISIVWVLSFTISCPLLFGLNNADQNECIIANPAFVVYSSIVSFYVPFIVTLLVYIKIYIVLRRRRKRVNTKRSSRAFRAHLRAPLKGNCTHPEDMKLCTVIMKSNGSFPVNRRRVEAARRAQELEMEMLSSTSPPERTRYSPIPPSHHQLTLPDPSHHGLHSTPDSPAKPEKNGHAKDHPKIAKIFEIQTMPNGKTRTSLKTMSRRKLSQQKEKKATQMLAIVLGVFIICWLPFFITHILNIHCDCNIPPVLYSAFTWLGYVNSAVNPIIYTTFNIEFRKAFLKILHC
CONDITION_CONTEXT: read-out: IC50, inhibition of the FRET signal by increasing concentrations of NAPS; Cos7 cells transfected with D2 receptors; NAPS(Lumi4-Tb) (8) 1 nM and NAPS(d1) (9) 5 nM
PROPERTY_LABEL: IC50 (nM)
Give bare numbers, in nM.

Short answer for Nc1ccc(CCN2CN(c3ccccc3)C3(CCN(CCCC(=O)c4ccc(F)cc4)CC3)C2=O)cc1 : IC50 was 1.9
